Biological target: human recombinant MC1R (CHO-K1 stable cell line, GenScript) (human, UniProt Q01726 1-317)
Sequence (Q01726 whole entry): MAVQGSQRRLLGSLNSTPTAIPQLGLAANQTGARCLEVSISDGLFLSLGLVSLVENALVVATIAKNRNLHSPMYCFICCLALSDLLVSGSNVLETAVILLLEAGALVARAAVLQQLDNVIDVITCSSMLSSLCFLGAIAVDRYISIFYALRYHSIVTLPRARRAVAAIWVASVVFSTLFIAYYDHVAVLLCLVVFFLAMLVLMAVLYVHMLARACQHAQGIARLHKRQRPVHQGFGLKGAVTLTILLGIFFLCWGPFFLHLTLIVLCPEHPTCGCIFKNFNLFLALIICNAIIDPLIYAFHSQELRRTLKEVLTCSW
Test: cell-based or functional assay
Positions of bridges follow the written chain, without caps; N, C: chain ends. Non-standard residues stand in square brackets, D forms with d. Lys(N3) = [N-]=[N+]=NCCCC[C@H](N)C(=O)O; NMeR = CN[C@@H](CCCNC(=N)N)C(=O)O; Nle = CCCC[C@H](N)C(=O)O; Pra = C#CC[C@H](N)C(=O)O
Experimental Readout: MC1R IC50 (nM)

a: XXHFRWX (Ac-Nle-[Dab(N3)-His-DPhe-Arg-Trp-Dab(N3)] linkr: 3,3′-Oxybis[1-propyne]-NH2) [KR-042]
b: Ac-YSMEHFRWGKPV-NH2 [KR-001]
c: Ac-[Nle][Lys(N3)]H[dF][NMeR]W[Pra]-NH2 (triazole 2-7) [KR-045]
Let's sort these by MC1R IC50, smallest first. Go ahead? When ranking, write the labels in the order the request describes.
b, a, c
